Origin of measurements: ChEMBL document CHEMBL3430912

Test system: Trypanosoma cruzi
Experiment: GSK_TCAKS: pIC50 Trypanosoma cruzi Imaging: Amastigotes/Cell. […] Cells were then washed once with PBS before infection. T. cruzi trypomastigotes, collected at days 5 to 8 after infection from LLC-MK2 parasite infected cultures, were allowed to swim out for 4h at 37C from a centrifuged pellet (2,500 rpm/10 min/room temperature). Trypomastigotes were then collected and counted in a CASY Cell Counter. Trypomastigotes, in supplemented DMEM, were added to H9c2 cultures in a multiplicity of infection of 1 and incubated for 18 h. Cells were washed once with PBS before incubation of the infected H9c2 monolayer with trypsin (Life-Technologies) to detach cells from the flask. Cells were counted in a CASY Cell Counter using a 150 um capillary and their density set at 5 * 10^4 cells per mL in supplemented assay DMEM. Infected H9c2 were dispensed into 384-well poly-lysine coated assay plates at 50uL per well using a Multidrop Combi dispenser. After seeding them, the plates were incubated at 37C, 5% CO2 for 72h. Cultures were then fixed and stained by addition of 50 uL of a solution containing 8% formaldehyde and 4 uM DRAQ5 DNA dye (BioStatus, UK) per well. […] Five images were collected per well for reliable statistical analysis. Automated image analysis was performed with a script developed on Acapella High Content Imaging and Analysis Software (PerkinElmer). Output: number of amastigotes per cell as infection level measurement.
Format: functional, organism-based, Rattus norvegicus
Details: H9c2, 4 h
Labels assigned by IC50 range: low bin: < 600 nM; mid bin: ≥ 600 nM and < 2000 nM; high bin: ≥ 2000 nM

{"molecule": "FC(F)(F)c1cc(C2CCCN(Cc3c[nH]c4ccccc34)C2)nc2ncnn12 (configuration not stated)", "class.assignment": "high bin"}
{"molecule": "COc1ccc(CN2CCCCC2c2nc(-c3cccnc3)no2)cc1 (configuration not stated)", "class.assignment": "mid bin"}
{"molecule": "COc1ncc(-c2ccc3ncnc(N4CCOCC4)c3c2)cc1NS(C)(=O)=O", "class.assignment": "high bin"}
{"molecule": "Cc1cc(NC(=O)C2CC2)ccc1OC1CCN(Cc2ccco2)CC1", "class.assignment": "high bin"}
{"molecule": "O=C(Nc1ccc(S(=O)(=O)N2CCCC2)cc1)c1ccc([N+](=O)[O-])s1", "class.assignment": "low bin"}
{"molecule": "COCc1cnc2c(c1SCc1c(F)cccc1Cl)c(=O)n(C)c(=O)n2C", "class.assignment": "high bin"}
{"molecule": "O=C(c1cc2cc(Cl)ccc2[nH]1)N1CCCCC1c1cccnc1 (configuration not stated)", "class.assignment": "low bin"}
{"molecule": "c1ccc(-c2nc(NCc3ccco3)c3ccccc3n2)nc1", "class.assignment": "high bin"}
{"molecule": "COc1ccc2ncc(F)c(NC(=O)[C@]3(O)CC[C@@H](NCc4ccc5c(c4)OCCO5)CC3)c2n1", "class.assignment": "low bin"}
{"molecule": "O=C(NCc1nnc2n1CCCCC2)c1ccc(-c2ccc(F)cc2)o1", "class.assignment": "mid bin"}
{"molecule": "COc1ccc(S(=O)(=O)Nc2ccccc2OC)cc1NC(=O)CCCc1c[nH]c2ccccc12", "class.assignment": "mid bin"}
{"molecule": "Cc1ccccc1CNc1cc(C2CC2)nc(-c2nccn2C)n1", "class.assignment": "mid bin"}
{"molecule": "N#CN1CC[C@@H](NC(=O)Nc2ccccc2Oc2ccccc2)C1", "class.assignment": "high bin"}
{"molecule": "CNc1cc(C)nc(C2CN(C(=O)c3n[nH]c4ccccc34)CCO2)c1 (configuration not stated)", "class.assignment": "mid bin"}
{"molecule": "COc1ccc2ncc(=O)n(CCN3CC[C@H](NCc4ncc(Cl)c5[nH]ncc45)[C@H](O)C3)c2n1", "class.assignment": "mid bin"}
{"molecule": "O=C(NCCc1ccn(-c2ccccc2)n1)C1CCCCC1", "class.assignment": "mid bin"}
{"molecule": "CC1(C)CCC(=Cc2ccc(Cl)cc2)CC1(O)Cn1ccnc1 (configuration not stated)", "class.assignment": "low bin"}
{"molecule": "CN(CCOc1ccc(Cl)cc1)Cc1nc(N)nc(N(C)C)n1", "class.assignment": "high bin"}
{"molecule": "NC(=O)c1ncccc1Nc1nc(N[C@H]2CC[C@H](O)CC2)ncc1Br", "class.assignment": "low bin"}
{"molecule": "NC(=O)c1cc(F)ccc1Nc1nc(N[C@H]2CC[C@H](O)CC2)ncc1Cl", "class.assignment": "mid bin"}
{"molecule": "O=c1nc(NCCCNCc2cc(Br)cc(Br)c2)[nH]c2ccsc12", "class.assignment": "low bin"}
{"molecule": "O=S(=O)(NCC(c1cccnc1)N1CCN(c2ccc(F)cc2)CC1)c1cccs1 (configuration not stated)", "class.assignment": "low bin"}

----------
Biological target: Sterol 14-alpha demethylase (Trypanosoma cruzi (strain CL Brener))
Sequence (Q7Z1V1 whole entry): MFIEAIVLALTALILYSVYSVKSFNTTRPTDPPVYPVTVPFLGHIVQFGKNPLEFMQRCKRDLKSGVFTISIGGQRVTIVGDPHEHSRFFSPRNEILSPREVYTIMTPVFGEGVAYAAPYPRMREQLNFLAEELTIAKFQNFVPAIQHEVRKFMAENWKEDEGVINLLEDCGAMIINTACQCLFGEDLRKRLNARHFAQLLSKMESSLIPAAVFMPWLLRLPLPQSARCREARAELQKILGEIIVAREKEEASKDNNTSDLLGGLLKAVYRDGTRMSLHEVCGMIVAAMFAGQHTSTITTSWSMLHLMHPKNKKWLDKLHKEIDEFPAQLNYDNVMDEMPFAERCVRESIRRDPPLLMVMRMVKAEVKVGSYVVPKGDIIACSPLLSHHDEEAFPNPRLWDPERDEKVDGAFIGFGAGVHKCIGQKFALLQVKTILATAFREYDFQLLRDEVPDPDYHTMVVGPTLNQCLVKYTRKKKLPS
Test: GSK_TCAKS: pIC50 CYP51 from Trypanosoma cruzi.
Assay type: functional
pIC50: −log10 of the molar value.
Overview of recorded pIC50 for various molecules

{"molecule": "CN(C)Cc1cccc(Nc2nccc(-c3ccc(NCCN)c(C#N)c3)n2)c1", "subject.of.test": "Sterol 14-alpha demethylase (Trypanosoma cruzi (strain CL Brener))", "sign.qualifier": "=", "pIC50": 5.20}
{"molecule": "CC(CNS(=O)(=O)c1ccc(OC(F)F)cc1)c1ccc(NC(=O)c2ccncc2)cc1 (configuration not stated)", "subject.of.test": "Sterol 14-alpha demethylase (Trypanosoma cruzi (strain CL Brener))", "sign.qualifier": "=", "pIC50": 7.30}
{"molecule": "COc1cccc(NS(=O)(=O)c2ccc3ncc(C(=O)NCCC(C)C)c(O)c3c2)c1", "subject.of.test": "Sterol 14-alpha demethylase (Trypanosoma cruzi (strain CL Brener))", "sign.qualifier": "=", "pIC50": 5.20}
{"molecule": "O=C(Nc1nc(-c2ccc(S(=O)(=O)N3CCOCC3)cc2)cs1)c1ccc([N+](=O)[O-])cc1", "subject.of.test": "Sterol 14-alpha demethylase (Trypanosoma cruzi (strain CL Brener))", "sign.qualifier": "<", "pIC50": 4.00}
{"molecule": "Cn1c(CC(=O)NNC(=O)c2ccc3ccccc3n2)nc2ccccc21", "subject.of.test": "Sterol 14-alpha demethylase (Trypanosoma cruzi (strain CL Brener))", "sign.qualifier": "=", "pIC50": 4.50}
{"molecule": "COc1cccc(-c2c(C)nn(-c3nc(N)nc(-c4ccccn4)n3)c2N)c1", "subject.of.test": "Sterol 14-alpha demethylase (Trypanosoma cruzi (strain CL Brener))", "sign.qualifier": "<", "pIC50": 4.00}
{"molecule": "O=C(c1cnn(-c2ccccc2)n1)N1CCCC(n2ccnc2)C1 (configuration not stated)", "subject.of.test": "Sterol 14-alpha demethylase (Trypanosoma cruzi (strain CL Brener))", "sign.qualifier": "=", "pIC50": 7.10}
{"molecule": "Cc1cc(Nc2cc(C3CC3)[nH]n2)nc(N2CCCC2)n1", "subject.of.test": "Sterol 14-alpha demethylase (Trypanosoma cruzi (strain CL Brener))", "sign.qualifier": "<", "pIC50": 4.00}
{"molecule": "CCCn1c(NC(=O)Cc2ccc(Cl)cc2)nc2ccccc21", "subject.of.test": "Sterol 14-alpha demethylase (Trypanosoma cruzi (strain CL Brener))", "sign.qualifier": "<", "pIC50": 4.00}
{"molecule": "CC(C)(C)C(=O)Nc1cc(C2CC2)nn1-c1nc2c(c(=O)[nH]1)CCCC2", "subject.of.test": "Sterol 14-alpha demethylase (Trypanosoma cruzi (strain CL Brener))", "sign.qualifier": "<", "pIC50": 4.00}
{"molecule": "O=C(c1cccc(Nc2ncc(-c3ccc4c(c3)OCO4)cn2)c1)N1CCSC1", "subject.of.test": "Sterol 14-alpha demethylase (Trypanosoma cruzi (strain CL Brener))", "sign.qualifier": "=", "pIC50": 4.80}
{"molecule": "Cc1ccc2c(c1)SC(C(=O)Nc1nnc(-c3ccccn3)[nH]1)C2 (configuration not stated)", "subject.of.test": "Sterol 14-alpha demethylase (Trypanosoma cruzi (strain CL Brener))", "sign.qualifier": "<", "pIC50": 4.00}
{"molecule": "c1ccc2[nH]c(-c3ccc(N4CCCC4)nc3)nc2c1", "subject.of.test": "Sterol 14-alpha demethylase (Trypanosoma cruzi (strain CL Brener))", "sign.qualifier": "<", "pIC50": 4.00}
{"molecule": "CC(C)c1sc(Cl)nc1C(=O)NCCc1nc(C(=O)Nc2ccc3c(c2)OCO3)cs1", "subject.of.test": "Sterol 14-alpha demethylase (Trypanosoma cruzi (strain CL Brener))", "sign.qualifier": "=", "pIC50": 5.10}
{"molecule": "Cc1ccc2sc(NC(=O)Cn3cnc([N+](=O)[O-])n3)nc2c1", "subject.of.test": "Sterol 14-alpha demethylase (Trypanosoma cruzi (strain CL Brener))", "sign.qualifier": "<", "pIC50": 4.00}
{"molecule": "COc1ncc(-c2ccc3ncnc(N4CCOCC4)c3c2)cc1NS(C)(=O)=O", "subject.of.test": "Sterol 14-alpha demethylase (Trypanosoma cruzi (strain CL Brener))", "sign.qualifier": "=", "pIC50": 4.40}
{"molecule": "COc1cccc(C(=O)[C@H]2C[C@@H]2CN(Cc2ccccn2)Cc2ccccn2)c1", "subject.of.test": "Sterol 14-alpha demethylase (Trypanosoma cruzi (strain CL Brener))", "sign.qualifier": "=", "pIC50": 4.50}
{"molecule": "CC(C)CC(=O)NC(c1cccs1)c1ccc2cccnc2c1O (configuration not stated)", "subject.of.test": "Sterol 14-alpha demethylase (Trypanosoma cruzi (strain CL Brener))", "sign.qualifier": "=", "pIC50": 4.30}
{"molecule": "COc1cccc(Nc2cc(C)nc(-c3ccccn3)n2)c1", "subject.of.test": "Sterol 14-alpha demethylase (Trypanosoma cruzi (strain CL Brener))", "sign.qualifier": "<", "pIC50": 4.00}
{"molecule": "Cc1n[nH]c2c1C(c1ccc(OCc3ccccc3F)cc1)SCC(=O)N2 (configuration not stated)", "subject.of.test": "Sterol 14-alpha demethylase (Trypanosoma cruzi (strain CL Brener))", "sign.qualifier": "<", "pIC50": 4.00}
{"molecule": "Cc1cc(Nc2cc(C3CC3)[nH]n2)nc(N2CCC[C@H]2C(N)=O)n1", "subject.of.test": "Sterol 14-alpha demethylase (Trypanosoma cruzi (strain CL Brener))", "sign.qualifier": "<", "pIC50": 4.00}
{"molecule": "CCn1nccc1CN(C)C(=O)C=Cc1ccc(Cl)cc1", "subject.of.test": "Sterol 14-alpha demethylase (Trypanosoma cruzi (strain CL Brener))", "sign.qualifier": "=", "pIC50": 6.50}
